target: Tyrosinase (Agaricus bisporus, UniProt O42713)
Sequence (O42713 whole entry): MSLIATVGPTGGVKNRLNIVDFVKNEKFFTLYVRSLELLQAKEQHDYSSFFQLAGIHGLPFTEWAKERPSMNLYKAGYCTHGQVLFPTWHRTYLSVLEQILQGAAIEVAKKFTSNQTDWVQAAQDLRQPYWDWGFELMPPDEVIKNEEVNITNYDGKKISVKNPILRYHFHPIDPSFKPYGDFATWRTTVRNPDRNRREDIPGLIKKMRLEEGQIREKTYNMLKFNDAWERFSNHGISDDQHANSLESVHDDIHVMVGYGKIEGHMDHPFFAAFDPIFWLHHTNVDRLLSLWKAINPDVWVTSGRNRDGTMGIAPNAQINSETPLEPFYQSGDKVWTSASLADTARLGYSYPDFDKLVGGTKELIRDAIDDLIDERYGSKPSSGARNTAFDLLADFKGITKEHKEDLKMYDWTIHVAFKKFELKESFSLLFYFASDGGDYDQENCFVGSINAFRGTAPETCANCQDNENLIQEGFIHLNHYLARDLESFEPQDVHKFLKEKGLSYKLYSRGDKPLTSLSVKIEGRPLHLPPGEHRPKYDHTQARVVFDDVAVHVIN
Consider the following compounds and their measured Ki readings.

compound	uom	Ki
Oc1ccc(-c2nc3ccccc3s2)cc1	µM	1.7
Oc1ccc(-c2nc3ccccc3s2)c(O)c1	µM	7.7

----------
Consider the following compounds and their measured Ki readings.
molecular target: UniProt:O42713
test readout: Ki

compound	experimental system	readout value
Oc1ccc(-c2nc3ccccc3s2)cc1	UniProt:O42713	0.567 µM
Oc1ccc(-c2nc3ccccc3s2)c(O)c1	UniProt:O42713	0.673 µM
